- experimental.system: PfCSP full length (Plasmodium falciparum (isolate NF54), UniProt P19597)
- Sequence (P19597 20-375): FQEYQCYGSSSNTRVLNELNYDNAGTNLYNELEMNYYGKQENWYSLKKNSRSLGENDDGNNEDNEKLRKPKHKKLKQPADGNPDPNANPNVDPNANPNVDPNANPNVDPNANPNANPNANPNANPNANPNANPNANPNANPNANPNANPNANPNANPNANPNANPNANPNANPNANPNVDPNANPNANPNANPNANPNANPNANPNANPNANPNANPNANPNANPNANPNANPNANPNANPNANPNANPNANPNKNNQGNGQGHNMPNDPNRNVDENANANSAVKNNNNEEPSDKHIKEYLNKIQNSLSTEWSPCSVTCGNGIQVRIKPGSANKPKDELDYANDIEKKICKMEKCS
- protocol.summary: ELISA AUC
attribute.measured: binding score
Numbers only.

A selection of reference data follows.
CL-445827 (antibody, V domains shown, peptides N-terminally acetylated and C-terminally amidated) VH: QVQLVASGGGVVQPGRSLRLSCVASGFTFSFFGMHWVRQTPGRGLEWVAIIWYDGGHKFYADSVKGRFTISRDNSKDTLYLQMNSLRAEDTAVYYCARAEDNMARGNIDYSKYGMDVWGQGTTVTVSS VL: DIQMTQSPSTLSVSIGDRVTITCRASQSISTWLAWYQQKPGKAPKLLIYKASNLESGVPSRFSGSGSGTDFTLTISGLQPDDFATYYCQQYFSYWTFGQGTKVEIK: 2.5
CL-510418 (antibody, V domains shown, peptides N-terminally acetylated and C-terminally amidated) VH: QVQLVESGGGVVQPGQSLRLSCEASGFTFSNYGMHWVRQAPVKGLEWVAIIWFDGSYKYYADSVKGRFTVSRDNSKNTLYLQMDSLRAEDTAVYYCARARKGQRSDYYGSETSYTFDNWGQGTLVTVSS VL: DIQMTQSPSTLSASVGDRVTITCRASQSINSWLAWYQQKPGKAPKFLIYKASILESGIPSRFSGSGSGTEFTLTISSLQPDDFATYYCQQYNSYWTFGQGTKVEIK: 2.46

binding score recorded for this binder, CL-444469 (antibody, V domains shown, peptides N-terminally acetylated and C-terminally amidated) VH: QVQLVESGGGVVQPGRSLRVSCEVSGLTFSNYGMHWVRQAPGKRLEWVAIIWYDGSNKYYADSVKGRFTISRDNSKNTLYLQMNSLRAEDTAVYYCARSYGSGSRGDYYGMDVWGQGTTVTVSS VL: DIQMTQSPSTLSASVGDRVTITCRASQSISSWLAWFQQKPGKAPKLLIYKASSLESGVPSRFSGSGSGTEFTLTISSLQPDDFATYYCQQYYSYWTFGQGTKVEIK , is 2.4

Data origin, for the record: paper PMC10720262
